tested target: ΔF508 CFTR (Homo sapiens, UniProt P13569, DEL508-508)
Sequence (P13569 with tags, fused parts or gaps DEL508-508): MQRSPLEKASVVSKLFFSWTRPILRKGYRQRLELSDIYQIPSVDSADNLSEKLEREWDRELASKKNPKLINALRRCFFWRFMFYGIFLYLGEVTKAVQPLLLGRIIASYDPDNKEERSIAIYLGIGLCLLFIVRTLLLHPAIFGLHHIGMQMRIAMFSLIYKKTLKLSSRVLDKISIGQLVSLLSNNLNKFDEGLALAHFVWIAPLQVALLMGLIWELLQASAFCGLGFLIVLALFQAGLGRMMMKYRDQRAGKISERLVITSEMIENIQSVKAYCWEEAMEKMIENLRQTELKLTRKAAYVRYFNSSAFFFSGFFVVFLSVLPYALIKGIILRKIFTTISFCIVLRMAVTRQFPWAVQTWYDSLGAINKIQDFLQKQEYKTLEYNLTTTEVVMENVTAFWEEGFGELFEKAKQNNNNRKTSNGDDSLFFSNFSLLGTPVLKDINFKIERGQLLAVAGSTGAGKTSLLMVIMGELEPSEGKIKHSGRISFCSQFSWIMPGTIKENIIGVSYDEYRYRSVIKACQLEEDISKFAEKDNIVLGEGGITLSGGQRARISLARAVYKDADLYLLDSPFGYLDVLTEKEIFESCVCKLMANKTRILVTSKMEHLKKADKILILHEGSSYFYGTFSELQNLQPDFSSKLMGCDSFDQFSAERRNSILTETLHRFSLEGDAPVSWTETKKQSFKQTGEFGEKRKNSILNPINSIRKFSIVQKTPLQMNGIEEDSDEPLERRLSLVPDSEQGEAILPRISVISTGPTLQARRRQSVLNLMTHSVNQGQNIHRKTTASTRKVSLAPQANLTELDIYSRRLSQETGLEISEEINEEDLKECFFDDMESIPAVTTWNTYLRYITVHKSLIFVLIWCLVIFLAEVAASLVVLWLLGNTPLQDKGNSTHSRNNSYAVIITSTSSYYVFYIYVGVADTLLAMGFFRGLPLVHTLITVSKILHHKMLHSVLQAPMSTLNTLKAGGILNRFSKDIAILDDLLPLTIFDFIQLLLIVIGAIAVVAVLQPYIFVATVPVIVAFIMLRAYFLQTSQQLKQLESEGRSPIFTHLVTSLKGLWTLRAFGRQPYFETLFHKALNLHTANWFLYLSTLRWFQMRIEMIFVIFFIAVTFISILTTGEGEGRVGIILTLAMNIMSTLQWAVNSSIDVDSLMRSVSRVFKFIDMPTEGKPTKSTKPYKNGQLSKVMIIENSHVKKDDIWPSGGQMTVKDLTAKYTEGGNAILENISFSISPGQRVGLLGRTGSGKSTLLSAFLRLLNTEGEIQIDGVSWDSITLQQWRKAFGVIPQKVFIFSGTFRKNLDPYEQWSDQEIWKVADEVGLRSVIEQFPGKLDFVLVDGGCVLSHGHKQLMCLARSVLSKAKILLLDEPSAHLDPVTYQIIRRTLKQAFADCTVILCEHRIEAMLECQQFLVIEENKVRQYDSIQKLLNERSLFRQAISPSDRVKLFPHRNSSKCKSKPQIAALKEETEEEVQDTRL
assay method text: Potentiator activity, YFP halide (iodide) quenching assay in FRT cells expressing ΔF508 CFTR, 27° C. pre-incubation
Assay type: cell-based
Parameters: expressed in transfected cells; host or cells: Fischer rat thyroid (FRT) cells
measurement parameters: FRT cells ΔF508 CFTR/YFP, 24 hours at 27° C., compound with forskolin 30 min
quantity measured: EC50

compound=CCn1cc(Sc2ccccc2)c2c(N)ncnc21 value="< 2000 nM"
compound=CC(C)(C)n1cc(-c2ccc(Cl)cc2)c2c(N)ncnc21 value="< 2000 nM"
compound=CCn1cc(-c2ccc(Cl)cc2)c2c(NS(C)(=O)=O)ncnc21 value="> 15000 nM"
compound=CCn1nc(Sc2ccc(Cl)cc2)c2c(N)ncnc21 value="< 2000 nM"
compound="Nc1ncnc2c1c(-c1ccc(Cl)cc1)cn2CC(O)CF (centres unmarked)" value="> 15000 nM"

* * *

System: ypt1^ts cells
assay method text: Rescue of growth of ypt1^ts mutant yeast (OD600)
Type: cell-based
measurement parameters: Saccharomyces cerevisiae, read-out: Ypt1-ts MRC (Minimum Rescue Concentration), ypt1^ts cells, 35° C. and 37° C., OD600; multiple results separated by a comma
Below, each entry is listed with its recorded minimal effective concentration.
quantity measured: minimal effective concentration

compound=CC(C)(C)n1nc(-c2cccc(Cl)c2)c2c(N)ncnc21 tested_target="ypt1^ts cells" value="> 50 µM"
compound=CC(C)(C)n1nc(-c2ccccc2)c2c(N)ncnc21 tested_target="ypt1^ts cells" value="> 50 µM"
compound=CC(C)(C)n1nc(-c2ccc(F)cc2)c2c(N)ncnc21 tested_target="ypt1^ts cells" value="> 50 µM"
compound="CC(c1ccccc1)c1nn(C(C)(C)C)c2ncnc(N)c12 (stereo not drawn)" tested_target="ypt1^ts cells" value="10 to 50 µM"
compound=Nc1ncnc2c1c(Cc1cccc3ccccc13)nn2C1CCCC1 tested_target="ypt1^ts cells" value="< 10 µM"
compound=CC(C)(C)n1nc(Cc2cccc3ccoc23)c2c(N)ncnc21 tested_target="ypt1^ts cells" value="10 to 50 µM"
compound=CCn1nc(Cc2cccc3ccccc23)c2c(N)ncnc21 tested_target="ypt1^ts cells" value="< 10 µM"
compound=CC(C)(C)n1nc(C(N)=O)c2c(N)ncnc21 tested_target="ypt1^ts cells" value="> 50 µM"
compound=CCn1cc(-c2ccc(C)cc2)c2c(N)ncnc21 tested_target="ypt1^ts cells" value="10 to 50 µM"
compound=CC(C)Cn1nc(Cc2cccc3ccccc23)c2c(N)ncnc21 tested_target="ypt1^ts cells" value="< 10 µM"
compound=Nc1ncnc2c1c(Cc1cccc3ccccc13)nn2C1CC1 tested_target="ypt1^ts cells" value="< 10 µM"
compound=CC(C)(C)n1nc(Cc2cccc(Br)c2)c2c(N)ncnc21 tested_target="ypt1^ts cells" value="< 10 µM"
compound=CC(C)(C)n1nc(CNc2ccccc2)c2c(N)ncnc21 tested_target="ypt1^ts cells" value="10 to 50 µM"
compound=CC(C)(C)n1ncc2c(N)ncnc21 tested_target="ypt1^ts cells" value="> 50 µM"
compound=CC(C)(C)n1nc(-c2ccc(F)cc2)c2c(NC(=O)c3ccccc3)ncnc21 tested_target="ypt1^ts cells" value="> 50 µM"
compound=COC(=O)c1cnc2c(c(-c3ccc(C)cc3)nn2C(C)(C)C)c1N tested_target="ypt1^ts cells" value="> 50 µM"
compound=CC(C)(C)n1nc(Cc2ccc(F)c3ccccc23)c2c(N)ncnc21 tested_target="ypt1^ts cells" value="< 10 µM"
compound=CC(C)(C)n1nc(-c2ccccc2Cl)c2c(N)ncnc21 tested_target="ypt1^ts cells" value="> 50 µM"
compound=CC(C)(C)n1nc(Oc2ccccc2)c2c(N)ncnc21 tested_target="ypt1^ts cells" value="> 50 µM"
compound=CCn1nc(-c2ccc(C)cc2)c2c(N)cccc21 tested_target="ypt1^ts cells" value="> 50 µM"
compound=Cc1cccc(Cc2nn(C(C)(C)C)c3ncnc(N)c23)c1 tested_target="ypt1^ts cells" value="10 to 50 µM"
compound=C#Cc1cccc(Cc2nn(C(C)(C)C)c3ncnc(N)c23)c1 tested_target="ypt1^ts cells" value="10 to 50 µM"
compound=CC(C)(C)n1nc(-c2cccc3ccccc23)c2c(N)ncnc21 tested_target="ypt1^ts cells" value="10 to 50 µM"
compound=C=CCn1nc(-c2ccc(Cl)cc2)c2c(N)ncnc21 tested_target="ypt1^ts cells" value="> 50 µM"
compound=Cc1ccc(-c2nn(C(C)(C)C)c3nccc(N)c23)cc1 tested_target="ypt1^ts cells" value="> 50 µM"
compound=C=CCn1nc(Cc2cccc3ccccc23)c2c(N)ncnc21 tested_target="ypt1^ts cells" value="10 to 50 µM"
compound=CCn1nc(-c2ccc(Cl)cc2)c2c(N(C(C)=O)C(C)=O)ncnc21 tested_target="ypt1^ts cells" value="> 50 µM"
compound=CNC(=O)c1cnc2c(c(-c3ccc(C)cc3)nn2C(C)(C)C)c1N tested_target="ypt1^ts cells" value="> 50 µM"
compound=CC(C)(C)n1nc(-c2cccs2)c2c(N)ncnc21 tested_target="ypt1^ts cells" value="> 50 µM"
compound=C#CCn1nc(-c2ccc(Cl)cc2)c2c(N)ncnc21 tested_target="ypt1^ts cells" value="> 50 µM"
compound=CCn1nc2cccc(N)c2c1-c1ccc(C)cc1 tested_target="ypt1^ts cells" value="> 50 µM"
compound=Cc1nc(N)c2c(-c3ccc(Cl)cc3)nn(C(C)(C)C)c2n1 tested_target="ypt1^ts cells" value="10 to 50 µM"
compound=Cn1nc(-c2ccc(Cl)cc2)c2c(N)ncnc21 tested_target="ypt1^ts cells" value="> 50 µM"
compound=CC(C)(C)n1nc(Cc2cccc(C#N)c2)c2c(N)ncnc21 tested_target="ypt1^ts cells" value="> 50 µM"
compound=CC(C)(C)n1nc(-c2ccc(Cl)c(Cl)c2)c2c(N)ncnc21 tested_target="ypt1^ts cells" value="> 50 µM"
compound=CC(C)(C)n1nc(-c2ccc(Cl)cc2)c2c(N)nc(CC3CC3)nc21 tested_target="ypt1^ts cells" value="> 50 µM"
compound=CCn1nc(-c2ccc(Cl)cc2)c2c(N)ncnc21 tested_target="ypt1^ts cells" value="< 10 µM"
compound=CC(C)n1nc(Cc2cccc3ccccc23)c2c(N)ncnc21 tested_target="ypt1^ts cells" value="< 10 µM"
compound=CC(C)(C)n1nc(-c2ccc(Cl)cc2)c2c(N)nc(C3CC3)nc21 tested_target="ypt1^ts cells" value="> 50 µM"

* * *

Below, each entry is listed with its recorded EC50.
tested target: ΔF508 CFTR (Homo sapiens, UniProt P13569, DEL508-508)
assay method text: Potentiator activity, YFP halide (iodide) quenching assay in FRT cells expressing ΔF508 CFTR, 27° C. pre-incubation
Type: cell-based
Parameters: expressed in transfected cells; host or cells: Fischer rat thyroid (FRT) cells
measurement parameters: FRT cells ΔF508 CFTR/YFP, 24 hours at 27° C., compound with forskolin 30 min
Protocol: Fisher rat thyroid (FRT) cells stably expressing ΔF508 CFTR and a halide-sensitive variant of yellow fluorescent protein (YFP) were seeded into microtiter plates and allowed to grow for 24 hours at 37° C. and 5% CO2, as described above. […] Compounds in DMSO solution were pre-diluted into phosphate-buffered saline solution (PBS) containing forskolin. […] After 30 min of incubation at 37° C., the plates were placed in a fluorescence plate reader equipped with a reagent injector. […]
quantity measured: EC50

compound="CC(C)N1CC(n2nc(-c3ccc(Cl)cc3)c3c(N)ncnc32)C1 [Compound No. 304]" quantity_measured=EC50 value="> 15 µM"
compound="CC(C)(C)n1nc(Oc2ccc(C#N)cc2)c2c(N)ncnc21 [compound 205]" quantity_measured=EC50 value="< 2 µM"
compound="CC(C)(C)n1nc(-c2ccc(Cl)cc2)c2c(NC(=O)C3CCCC3)ncnc21 [compound 266]" quantity_measured=EC50 value="< 2 µM"
compound="Nc1ncnc2c1c(-c1ccc(Cl)cc1)nn2CC(F)F [compound 202]" quantity_measured=EC50 value="> 15 µM"
compound="CC(C)(C)n1nc(-c2ccc(Cl)cc2)c2c(NC(=O)N3CCOCC3)ncnc21 [compound 268]" quantity_measured=EC50 value="> 15 µM"
compound="CC(C)(C)n1nc(Oc2ccccn2)c2c(N)ncnc21 [compound 330]" quantity_measured=EC50 value="> 15 µM"
compound="CN(c1ccccc1)c1nn(C2CCC2)c2ncnc(N)c12 [compound 314]" quantity_measured=EC50 value="> 15 µM"
compound="CC(C)C(=O)Nc1ncnc2c1c(-c1ccc(Cl)cc1)cn2C(C)C [compound 352]" quantity_measured=EC50 value="< 2 µM"
compound="Nc1ncnc2c1c(-c1ccc(Cl)cc1)nn2C1CCCC1 [compound 34]" quantity_measured=EC50 value="< 2 µM"
compound="CC(C)(C)n1cc(-c2ccc(Cl)cc2)c2c(NC(=O)C3CCCC3)ncnc21 [compound 321]" quantity_measured=EC50 value="< 2 µM"
compound="CC(C)n1cc(-c2ccc(Cl)cc2)c2c(N)ncnc21 [compound 315]" quantity_measured=EC50 value="2 to 5 µM"
compound="CC(C)(C)n1nc(Oc2ccccc2[N+](=O)[O-])c2c(N)ncnc21 [compound 331]" quantity_measured=EC50 value="2 to 5 µM"
compound="Nc1ncnc2c1c(Oc1cccc(Cl)c1)nn2C1CCC1 [compound 228]" quantity_measured=EC50 value="< 2 µM"
compound="CC(C)(C)n1nc(-c2cccc(Cl)c2)c2c(N)ncnc21 [compound 10]" quantity_measured=EC50 value="< 2 µM"
compound="CC(C)(C)n1nc([S+]([O-])c2ccccn2)c2c(N)ncnc21 (stereo not drawn) [compound 329]" quantity_measured=EC50 value="> 15 µM"
compound="Cc1ccc(C(=O)Nc2ncnc3c2c(-c2ccc(C)cc2)nn3C(C)(C)C)cc1 [compound 95]" quantity_measured=EC50 value="2 to 5 µM"
compound="CCNC(=O)N1CC(n2nc(-c3ccc(Cl)cc3)c3c(N)ncnc32)C1 [Compound No. 275]" quantity_measured=EC50 value="> 15 µM"
compound="CC(=O)N1CCC(n2nc(-c3ccc(Cl)cc3)c3c(N)ncnc32)CC1 [compound 302]" quantity_measured=EC50 value="> 15 µM"
compound="CC(=O)N(C(C)=O)c1ncnc2c1c(-c1ccc(Cl)cc1)nn2C(C)(C)C [Compound No. 97]" quantity_measured=EC50 value="2 to 5 µM"
compound="CC(C)(C)OC(=O)N1CC(n2nc(-c3ccc(Cl)cc3)c3c(N)ncnc32)C1 [Compound No. 267]" quantity_measured=EC50 value="2 to 5 µM"
compound="CCn1nc([S+]([O-])c2cccc(C)c2)c2c(N)ncnc21 (stereo not drawn) [compound 224]" quantity_measured=EC50 value="> 15 µM"
compound="CCOC(=O)N1CC(n2nc(Sc3ccccc3)c3c(N)ncnc32)C1 [compound 347]" quantity_measured=EC50 value="> 15 µM"
compound="Nc1ncnc2c1c(-c1ccc(Cl)cc1)nn2C(=O)OCc1ccccc1 [compound 188]" quantity_measured=EC50 value="> 15 µM"
compound="Cc1cc(Oc2nn(C(C)(C)C)c3ncnc(N)c23)ccc1F [compound 179]" quantity_measured=EC50 value="< 2 µM"
compound="CC(=O)N1CC(n2nc(Sc3cccc(Cl)c3)c3c(N)ncnc32)C1 [compound 344]" quantity_measured=EC50 value="> 15 µM"
compound="Nc1ncnc2c1c(-c1ccc(Cl)cc1)nn2C1CCCC1 [compound 247]" quantity_measured=EC50 value="2 to 5 µM"
compound="CC(C)(C)n1nc(Oc2cccnc2)c2c(N)ncnc21 [compound 183]" quantity_measured=EC50 value="> 15 µM"
compound="Nc1ncnc2c1c(-c1ccc(Cl)cc1)nn2-c1nc2ccccc2o1 [compound 277]" quantity_measured=EC50 value="> 15 µM"
compound="CC(C)(C)n1nc(Oc2ccc3c(c2)CCC3)c2c(N)ncnc21 [compound 210]" quantity_measured=EC50 value="< 2 µM"
compound="Nc1ncnc2c1c(-c1ccc(Cl)cc1)cn2C1CCC1 [compound 257]" quantity_measured=EC50 value="< 2 µM"
compound="CC(C)(C)n1nc(Oc2ccc(F)c(Cl)c2)c2c(N)ncnc21 [compound 176]" quantity_measured=EC50 value="< 2 µM"
compound="CC(C)(C)C(=O)Nc1ncnc2c1c(-c1ccc(Cl)cc1)cn2C(C)(C)C [compound 349]" quantity_measured=EC50 value="2 to 5 µM"
compound="CCn1nc([S+]([O-])c2cccc3ccccc23)c2c(N)ncnc21 (stereo not drawn) [compound 241]" quantity_measured=EC50 value="> 15 µM"
compound="CCn1nc([S+]([O-])c2cccc(C(F)(F)F)c2)c2c(N)ncnc21 (stereo not drawn) [compound 284]" quantity_measured=EC50 value="> 15 µM"
compound="Nc1ncnc2c1c(-c1ccc(Cl)cc1)nn2C1CNC1 [compound 411]" quantity_measured=EC50 value="> 15 µM"
compound="CCNC(=O)N1CC(n2nc(Sc3cccc(Cl)c3)c3c(N)ncnc32)C1 [Compound No. 346]" quantity_measured=EC50 value="> 15 µM"
